Task for the reader: assign each of the following binders its reported kon.
target: T1, human-CD40 monomer (human, UniProt P25942 21-193, limits assumed)
T1 construct: also called hCD40-monomer; human-CD40-monomer protein
T1 sequence (P25942 21-193 limits assumed): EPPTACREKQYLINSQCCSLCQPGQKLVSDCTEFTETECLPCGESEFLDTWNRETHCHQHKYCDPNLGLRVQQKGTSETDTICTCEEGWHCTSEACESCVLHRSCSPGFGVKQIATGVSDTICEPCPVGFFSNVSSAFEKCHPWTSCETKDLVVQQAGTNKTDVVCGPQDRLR
protocol: SPR 2 pt screen, Ab on protein A
Give bare numbers, in M⁻¹ s⁻¹.

Illustrative cases are given below, each with its answer.
[[record]]
binder = "humanized Y1238 hz52 (hz-HC11 / hz-LC2), IgG1.3f (antibody, V domains shown, IgG1.3f heavy constant, common CL; expression supernatant; also called Sup 52) VH: QVQLVQSGAEVKKPGASVKVSCKASGYAFTNYLIEWVRQRPGQGLEWMGVINPGSGGTNYNEKFKGRVTMTRDKSSSTAYMELSRLRSDDTAVYFCARSQLGRRFDYWGQGTLVTVSS VL: DIQMTQSPSSLSASVGDRVTITCKASQDVRTGVAWYQQKPGKAPKLLIYSASYRNTGVPSRFSGSRSGTDFTFTISSLQPEDIATYYCQQHYSPPYTFGGGTKVEIK"
recordedmeasurement = 35000

[[record]]
binder = "humanized Y1238 hz46 (hz-HC10 / hz-LC1), IgG1.3f (antibody, V domains shown, IgG1.3f heavy constant, common CL; expression supernatant; also called Sup 46) VH: QVQLVQSGAEVKKPGASVKVSCKASGYAFTNYLIEWVRQRPGQGLEWMGVINPGSGGTNYNEKFKGRVTMTRDKSISTAYMELSRLRSDDTAVYYCARSQLGRRFDYWGQGTLVTVSS VL: DIQMTQSPSSLSASVGDRVTITCKASQDVRTGVAWYQQKPGKAPKLLIYSASYRNTGVPSRFSGSGSGTDFTFTISSLQPEDIATYYCQQHYSPPYTFGGGTKVEIK"
recordedmeasurement = 39000


Data request: Which measured kon value corresponds to humanized Y1238 hz23 (hz-HC5 / hz-LC3), IgG1.3f (antibody, V domains shown, IgG1.3f heavy constant, common CL; expression supernatant; also called Sup 23) VH: QVQLVQSGAEVKKPGASVKVSCKASGYAFTNYLIEWVRQRPGQGLEWMGVINPGSGGTNYNEKFKGRVTMTADKSISTAYMELSRLRSDDTAVYYCARSQLGRRFDYWGQGTLVTVSS VL: DIQMTQSPSSLSASVGDRVTITCKASQDVRTGVAWYQQKPGQSPKLLIYSASYRNTGVPSRFSGSRSGTDFTFTISSLQPEDIAVYYCQQHYSPPYTFGGGTKVEIK ?
Data returned: 43000
